The reported measurements were obtained from PubChem BioAssay (NCATS).

test: qHTS for Inhibitors of the Functional Ribonucleoprotein Complex (vRNP) of Lassa (LASV) Arenavirus: Viability assay - alamar blue signal for LASV Primary Screen (AID 1347083); details: cell viability, alamar blue fluorescence (LASV minigenome counter-screen); series mostly up to 57.5 µM; note: nearly all actives have a fitted effect of over 80% in size
Inconclusive results are not listed. Calls of active or inactive are those of the source. Calls come from the whole dose curve; tested in HEK293 reporter line.
Pick from active, inactive when you respond.

{"compound": "COc1cc(=C2C=c3ccccc3=N2)[nH]c1=Cc1[nH]c(C)cc1C", "label value": "active"}
{"compound": "COc1cc(S(N)(=O)=O)cc(C(=O)O)c1OC", "label value": "inactive"}
{"compound": "O=C(Cc1ccc(Cl)c(Cl)c1)N1CCCCC1CN1CCCC1 (centres undefined)", "label value": "inactive"}
{"compound": "Oc1cccc(-c2nc(N3CCOCC3)c3oc4ncccc4c3n2)c1", "label value": "active"}
{"compound": "CC[C@@H]1C(=O)OC[C@@H]1Cc1cncn1C", "label value": "inactive"}

For `COc1ccc(C2=N[C@H](c3ccc(Cl)cc3)[C@H](c3ccc(Cl)cc3)N2C(=O)N2CCNC(=O)C2)c(OC(C)C)c1` , what call appears in the results of this test?
inactive

---

assay: qHTS Assay for Identifying Gametocytocidal Compounds (AID 743244);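 note: % is set by controls: 0 for no effect and ±100 for the full control effect; actives lower the fluorescent signal which means gametocytes are killed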; conditions: P. falciparum 3D7 stage III-V gametocytes, alamarBlue, 72 h; stronger effect = lower value
Results filed as inconclusive are left out.
Each record is given yes (1) if its reported max response is strictly below 10%. Records at or above 10% are given no (0).

Reference set (3 entries):
{"given smiles": "Cn1cnc(CCN)c1", "label value": "no (0)"}
{"given smiles": "O=C(Oc1ccc([N+](=O)[O-])cc1)N1CCC(C(O)(c2ccc3c(c2)OCO3)c2ccc3c(c2)OCO3)CC1", "label value": "yes (1)"}
{"given smiles": "OCCCBr", "label value": "no (0)"}

Lab log: compare recorded max response with 10%; is it strictly lower for `Cc1ccccc1-n1c(Cn2cnc3c(N)ncnc32)nc2cccc(C)c2c1=O` ?
no (0)

Hello, I'm reviewing records and need to know if max response of `Cc1ccc(Cl)c(O)c1` is below 10%. Could you check?
yes (1)

For `COCCOCCO` , is the recorded max response below the cut-off of 10%?
yes (1)

Is max response strictly under 10% for the entry `COc1nn(CSP(=S)(OC)OC)c(=O)s1` ?
no (0)

Hi there! Is max response for `C[N+](C)(C)CC(=O)O` below 10%, do you know?
yes (1)

---

target: Luciferin 4-monooxygenase (Photinus pyralis); assay: Biochemical firefly luciferase enzyme assay for NPC (AID 624030); note: nearly all actives have a fitted effect of over 70% in size; details: purified P. pyralis luciferase, luminescence, 5 min; series mostly up to 58.6 µM
Results filed as inconclusive are left out. Calls of active or inactive are those of the source. Calls follow the shape of the dose curve; as a rule, active = well fitted inhibition curve with a large enough effect; inconclusive = small, poorly fitted or top-dose-only effect; inactive = flat fitted curve, though single readings scatter.
Would you mind answering with one of these outcomes? 1 (yes) (active), 0 (no) (inactive)

See these solved cases before continuing.
{"compound": "CCCCCCCCCC(CC)c1ccc(S(=O)(=O)O)cc1 (stereo not drawn)", "study target": "Luciferin 4-monooxygenase (Photinus pyralis)", "label value": "0 (no)"}
{"compound": "OCCCBr", "study target": "Luciferin 4-monooxygenase (Photinus pyralis)", "label value": "0 (no)"}

Assay result, entry C#CC1(O)CCC2C3CCC4=CC(=O)CCC4(C)C3CCC21C (stereo not drawn) — outcome?
0 (no)

Hi, sorry to bother you, what did the test record for `S=C(SSC(=S)N1CCCCC1)N1CCCCC1` ?
1 (yes)

Recorded test call requested for `C[C@]12CC[C@@H]3[C@@H](CCC4=CC(=O)CC[C@@H]43)[C@@H]1CC[C@@H]2OC(=O)CCc1ccccc1`
0 (no)

Would you mind telling me which call this test gave `CCCCOC(=O)c1ccccc1C(=O)OCc1ccccc1` ?
0 (no)

Call for entry CC(C)NC(C)Cc1ccc(I)cc1 (stereo not drawn) :
0 (no)
